- Tested on: THP-1
- Test: Inhibition of LPS-induced Tumor necrosis factor-alpha production (TNF-alpha) in THP-1 cells
- Assay type: functional, cell-based
- Measurement Setup: Homo sapiens
Kindly apply the following: T if IC50 is less than 400 nM, F in every other case.

Compound	Category
C[C@H](c1ccccc1)N1C(=O)c2c(F)c(F)c(F)c(F)c2C1=O	F
COC(=O)C[C@@H](c1ccc(OC)c(OC)c1)N1C(=O)c2c(F)c(F)c(F)c(F)c2C1=O	T
C[C@]1(N2C(=O)c3c(F)c(F)c(F)c(F)c3C2=O)CCC(=O)NC1=O	F
C[C@@H](c1ccccc1)N1C(=O)c2c(F)c(F)c(F)c(F)c2C1=O	T
COC(=O)CC(c1ccc(OC)c(OC)c1)N1C(=O)c2c(F)c(F)c(F)c(F)c2C1=O (racemic)	T
CN1C(=O)c2c(F)c(F)c(F)c(F)c2C1=O	F
C[C@@]1(N2C(=O)c3c(F)c(F)c(F)c(F)c3C2=O)CCC(=O)NC1=O	F
CC1(N2C(=O)c3c(F)c(F)c(F)c(F)c3C2=O)CCC(=O)NC1=O (racemic)	T

Dear reviewer, please state whether O=C1CCC(N2C(=O)c3c(F)c(F)c(F)c(F)c3C2=O)C(=O)N1 (configuration not stated) has IC50 strictly beneath 400 nM. F

Proceed to CC(c1ccccc1)N1C(=O)c2c(F)c(F)c(F)c(F)c2C1=O (racemic) F

Proceed to O=C1c2c(F)c(F)c(F)c(F)c2C(=O)N1c1ccccc1 F

Proceed to COC(=O)C[C@H](c1ccc(OC)c(OC)c1)N1C(=O)c2c(F)c(F)c(F)c(F)c2C1=O T

The reported numbers originate from ChEMBL document CHEMBL1130806.
